Every entry's value here was drawn from ChEMBL document CHEMBL1201862.

- System: OVCAR-4
- ASSAY_NAME: NCI tumour cell line growth inhibition, 48 h
Activity calls are given as the source filed them. No stated cut-off is given here; in the data, active = GI50 up to about 1.1 µM and inactive = higher.
# GI50 per record follows
PROPERTY_NAME: GI50

INSERT INTO measurements (compound, assay_result) VALUES
  ('C=C(CCCCC)CN1CCCC1[C@@](C)(O)CC(=O)OCC (stereo partly specified)', '> 100 µM (inactive)'),
  ('Cc1nc([N+](=O)[O-])cn1CC(=N)N', '> 100 µM (inactive)'),
  ('O=C=C=P(c1ccccc1)(c1ccccc1)c1ccccc1', '61.2 µM (inactive)'),
  ('CC(C)(C)NC(=O)C12C3C4C1C1C2C3C41C(=O)NC(C)(C)C (stereo unspecified)', '> 100 µM (inactive)'),
  ('C=C(CO)[C@H]1Oc2ccc(C(C)=O)cc2[C@@H]1O', '> 100 µM (inactive)'),
  ('CN(C)CCSc1cccc(-c2cc(-c3cccc(SCCN(C)C)c3)nc(SCCN(C)C)n2)c1', '1.67 µM (inactive)'),
  ('COc1c2c(c(OC)c3c(=O)cc(C/C(=N/NC(=O)C[n+]4ccccc4)C(=O)Nc4cc(C)ccc4C)oc13)OCO2', '> 100 µM (inactive)'),
  ('O=C(NC(=O)c1cn(CCNCCO)c(=O)[nH]c1=O)OCc1ccccc1', '> 100 µM (inactive)'),
  ('Nn1c(CCCCCCCCc2nnc(COc3ccc(Cl)cc3Cl)n2N)nnc1COc1ccc(Cl)cc1Cl', '46.5 µM (inactive)'),
  ('CCN1C(=O)C(=CN)C(=O)N(CC)C1=O', '> 100 µM (inactive)'),
  ('O=C(/C=C/c1ccccc1O)c1ccccc1Cl', '19.2 µM (inactive)');
